Provide the recorded maximal inhibition for the entries that follow.
- Test system: HEK293
- EXPERIMENTAL_DETAILS: maximal inhibition of ZIKV NS1 production (% inhibition); higher = stronger antiviral effect
# respond with the number and nothing more

Data request: Output measured maximal inhibition for this item: CC[C@H](CC#N)OC(=O)N[C@@H](C)c1cccc(NC(=O)Nc2ccc(-c3cnco3)c(OC)c2)c1
Data returned: 99

Data request: Output measured maximal inhibition for this item: COc1cc(OC)c(/C=C/S(=O)(=O)Cc2ccc(OC)c(NCC(=O)O)c2)c(OC)c1
Data returned: 61

Data request: Output measured maximal inhibition for this item: CCc1c2c(nc3ccc(O)cc13)-c1cc3c(c(=O)n1C2)COC(=O)[C@]3(O)CC
Data returned: 61

Data request: Output measured maximal inhibition for this item: Cn1c(=O)c(-c2c(Cl)cccc2Cl)cc2cnc(Nc3ccc(N4CCOCC4)cc3)nc21
Data returned: 102

Data request: Output measured maximal inhibition for this item: S=C(SSC(=S)N1CCCCC1)N1CCCCC1
Data returned: 86

Data request: Output measured maximal inhibition for this item: CCOC(=O)C1(c2ccccc2)CCN(CCC(C#N)(c2ccccc2)c2ccccc2)CC1
Data returned: 105

Data request: Output measured maximal inhibition for this item: CC(C)C[C@H](NC(=O)CNC(=O)c1cc(Cl)ccc1Cl)B(O)O
Data returned: 102
